# System: wild-type E. coli K-12
# Type: cell-based, Escherichia coli
# testParameters: strain K-12; NMP + antibiotic
# Experimental: Synergy measurement using checkerboard analysis was performed in 96-well microtiter plates using the microdilution broth method, according to CLSI guidelines (Patel J. B., 2015). The cell inocula were prepared using the colony resuspension method. The minimum inhibitory concentrations (MICs) were defined as the lowest concentration that provided no growth, as determined by measurement of the OD600nm using a Synergy H1 microplate reader (BioTek). […]
quantityMeasured: FICI
Just the number, please.

Qu. For the compound shown here, CC(=O)NC[C@H]1CN(c2ccc(N3CCOCC3)c(F)c2)C(=O)O1 [linezolid] , give the reported FICI.
Ans. 0.375

Qu. Now the same for Cc1onc(-c2ccccc2)c1C(=O)N[C@@H]1C(=O)N2[C@@H]1SC(C)(C)[C@@H]2C(=O)O [oxacillin]
Ans. 0.375

Qu. Similarly, CC[n+]1c(-c2ccccc2)c2cc(N)ccc2c2ccc(N)cc21 [ethidium bromide] ?
Ans. 0.375
